Tested on: Pseudomonus aeruginosa NCTC-10490
Assay summary: In vitro activity, two-fold agar-plate dilution method, minimal inhibitory concentration (MIC)
Format: cell-based
Condition summary: heart infusion agar (HI-agar); overnight culture in Trypticase-soy broth (10^8 viable cells per ml.); incubation at 37° C. for 20 hours; read-out: MIC (minimal inhibitory concentration)

Compound	MIC
CC(=O)OCC1=C(C(=O)O)N2C(=O)[C@@H](NC(=O)[C@H](NC(=O)COc3ccc(Cl)cc3C(=O)c3ccc(NC(=O)CSCC(=O)O)cc3)c3ccccc3)[C@H]2SC1	6.25 µg/mL
Cn1nnnc1SCC1=C(C(=O)O)N2C(=O)C(NC(=O)[C@H](NC(=O)c3cc(C(N)=O)c(Cl)cc3O)c3ccccc3)C2SC1 (stereo partly drawn)	0.78 µg/mL
Cn1nnnc1SCC1=C(C(=O)O)N2C(=O)C(NC(=O)[C@H](NC(=O)c3cc([N+](=O)[O-])ccc3O)c3ccccc3)C2SC1 (stereo partly drawn)	0.78 µg/mL
